Assignment: determine reported Kd for the given binders.
Biological target: HLA-A*0201 loaded with the Carcinoembryonic antigen (CEA)-derived … peptide (biotinylated on the C-terminal biotinylation tag)
Test: SPR (Biacore), Example 4

| Binder | Kd |
| --- | --- |
| SEQ ID NO 69 (receptor) MHLPKPTLWAEPGSVITLQSPVTLRCQGGQETQEYRLYREKKTAPWITRIPQELVKKGQFPIPSITWEHAGRYRCYYGSDTSQWSASSDPLELVVTGVYIKPTLSAQPSPVVNSGGNVTLQCDSQVAFDGFILCKEGEDEHPQCLNSQPHARGSSRAIFSVGPVSPSRRWWYRCYAYDSNSPYEWSLPSDLLELDVDG | ≤ 1000 nM |
| SEQ ID NO 47 (receptor) MGHLPKPTLWAEPGSVITQGSPVTLRCQGGQETQEYRLYREKKTAPWITRIPQELVKKGQFPIPSITWEHAGRYRCYYGGQEGARSESSDPLELVVTGVYIKPTLSAQPSPVVNSGGNVTLQCDSQVAFDGFILCKEGEDEHPQCLNSQPHARGSSRAIFSVGPVSPSRRWWYRCYAYDSNSPYEWSLPSDLLELLVL | ≤ 1000 nM |

GET /value?item= SEQ ID NO 65 (receptor) MHLPKPTLWAEPGSVITMDQPVTLRCQGGQETQEYRLYRERKTAPWITRIPQELVKKGQFPIPSITWEHAGRYRCYYGSDTSQWSASSDPLELVVTGVYIKPTLSAQPSPVVNSGGNVTLQCDSQVAFDGFILCKEGEDEHPQCLNSQPHARGSSRAIFSVGPVSPSRRWWYRCYAYDSNSPYEWSLPSDLLELDVDG &field=Kd returns ≤ 1000 nM
